# Experimental target: T1, NativeRPtag(large)_with_Tags_and_Cys (Thermoanaerobacter tengcongensis)
# T1 construct: Unlabeled in anisotropy assays; coupled through the engineered N-terminal Cys to SulfoLink agarose or maleimide plates in column, pull-down and ELISA assays
# T1 chain: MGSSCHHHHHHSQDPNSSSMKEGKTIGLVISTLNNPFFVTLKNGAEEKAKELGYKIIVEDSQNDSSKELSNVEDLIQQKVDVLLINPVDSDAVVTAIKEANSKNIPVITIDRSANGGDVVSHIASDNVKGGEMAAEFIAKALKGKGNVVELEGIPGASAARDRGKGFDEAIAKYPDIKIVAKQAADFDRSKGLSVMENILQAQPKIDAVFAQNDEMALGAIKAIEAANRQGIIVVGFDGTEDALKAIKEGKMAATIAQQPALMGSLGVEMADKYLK
# Assay comment: fluorescence anisotropy, competitor chase
No end group written: not given here. *: point of attachment. RhodamineB = CCN(CC)c1ccc2c(-c3ccccc3C(=O)*)c3ccc(=[N+](CC)CC)cc-3oc2c1
Field: label. Allowed values: Y (koff < 0.001 s⁻¹) or N (koff >= 0.001 s⁻¹).

INPUT: Identify whether the binder RhodamineB-KIPNFIPAELKLITKE [RPtag(small) Nd2, Cd3] records koff below 0.001 s⁻¹.
OUTPUT: Y

INPUT: Identify whether the binder RhodamineB-ELKLITKE [RPtag(small) Nd10, Cd3] records koff below 0.001 s⁻¹.
OUTPUT: N

INPUT: Identify whether the binder RhodamineB-GEKIPNFIPAELKLITK [RPtag(small) Cd4] records koff below 0.001 s⁻¹.
OUTPUT: N

INPUT: Identify whether the binder RhodamineB-KIANFIPAELKLITKA [RPtag(small) Nd2, Cd3, p5a, e18a] records koff below 0.001 s⁻¹.
OUTPUT: N

INPUT: Identify whether the binder RhodamineB-GEKIPNFIPAELKAITKENVQ [RPtag(small) l14a] records koff below 0.001 s⁻¹.
OUTPUT: N

INPUT: Identify whether the binder RhodamineB-GEKIPNFIPAELKLIAKENVQ [RPtag(small) t16a] records koff below 0.001 s⁻¹.
OUTPUT: N

INPUT: Identify whether the binder RhodamineB-KIPNFIPAELKLITK [RPtag(small) Nd2, Cd4] records koff below 0.001 s⁻¹.
OUTPUT: N

INPUT: Identify whether the binder RhodamineB-KIPNFIPAELKLITKANAA [RPtag(small) Nd2, e18a, v20a, q21a] records koff below 0.001 s⁻¹.
OUTPUT: Y

INPUT: Identify whether the binder RhodamineB-KIPNFIPAELKLITKENVQ [RPtag(small) Nd2] records koff below 0.001 s⁻¹.
OUTPUT: Y

INPUT: Identify whether the binder RhodamineB-GEKIPNFIPAELKLITAENVQ [RPtag(small) k17a] records koff below 0.001 s⁻¹.
OUTPUT: Y

INPUT: Identify whether the binder RhodamineB-GEKIPNFIPAELKLITKEN [RPtag(small) Cd2] records koff below 0.001 s⁻¹.
OUTPUT: N

INPUT: Identify whether the binder RhodamineB-GEKIPNFIPAELKLITKENAQ (built here from the native peptide with the stated change) [RPtag(small) v20a] records koff below 0.001 s⁻¹.
OUTPUT: Y

INPUT: Identify whether the binder RhodamineB-EKIPNFIPAELKLITKENVQ [RPtag(small) Nd1] records koff below 0.001 s⁻¹.
OUTPUT: Y

INPUT: Identify whether the binder RhodamineB-FIPAELKLITKE [RPtag(small) Nd6, Cd3] records koff below 0.001 s⁻¹.
OUTPUT: N
